Assay: compound effects on differentiated 3T3-L1 adipocyte viability – cell-based, 3T3-L1 adipocytes, calcein-AM fluorescence, 48 h, basal, profiling panel (AID 1163); also: test concentration not given here
Settings: 3T3-L1 adipocytes viability, higher = more signal
PROPERTY: z-score
Please respond with just the number, no unit label.

// query Which z-score is listed for CC(C)[Si](C#C[Si](C(C)C)(C(C)C)C(C)C)(O[C@H](C)c1cn(Cc2cccc(Cl)c2)nn1)C(C)C ?
// result -0.667

// query Which z-score is listed for C=CCOC(=O)[C@@H]1[C@H]2C(=O)O[C@H](c3ccccc3)[C@H](c3ccccc3)N2[C@H](c2ccc(OCCOC(=O)[C@@H]3C[C@@H]4C(=O)N5CCC[C@H]5C(=O)N4[C@@H]3c3cccc(OCCO)c3)cc2)[C@@]12C(=O)Nc1ccc(I)cc12 ?
// result 0.584

// query Which z-score is listed for C=CCOC(=O)[C@H]1[C@@H]2C(=O)O[C@@H](c3ccccc3)[C@@H](c3ccccc3)N2[C@@H](c2ccc(OCCOC(=O)[C@H]3C[C@H]4C(=O)N[C@@H](CCCCN(C)C)C(=O)N4[C@H]3c3ccc(O)cc3)cc2)[C@]12C(=O)Nc1ccccc12 ?
// result 1.04

// query Which z-score is listed for O=C1O[C@H](c2ccccc2)[C@H](c2ccccc2)N2[C@H]1[C@@H](C(=O)N1CCN(c3ncccn3)CC1)[C@]1(C(=O)Nc3ccc(C#CCCO)cc31)[C@H]2c1ccc(OCCO)cc1 ?
// result 0.404

// query Which z-score is listed for C=CCN1C(=O)[C@@]2(O[C@@H](CCO)[C@H]([Si](C)(C)c3ccc(OC)cc3)[C@H]2C)c2cc(NC(=O)[C@H](C)O)ccc21 ?
// result 0.178

// query Which z-score is listed for [N-]=[N+]=Nc1ccccc1C[C@]1(C(=O)NCCN2CCOCC2)N=C(c2ccc(OCCCO)cc2)O[C@H]1c1ccccc1N=[N+]=[N-] ?
// result 0.784

// query Which z-score is listed for NCCCCCCNC(=O)[C@H]1C[C@H]2C(=O)N3CCC[C@H]3C(=O)N2[C@H]1c1ccc(O)cc1 ?
// result 1.14

// query Which z-score is listed for CO[C@H]1O[C@H](CO)[C@@H](OC(=O)Nc2ccc(C(F)(F)F)cc2)[C@H](OC(=O)Nc2ccccc2)[C@H]1OC(=O)Nc1ccccc1 ?
// result 1.96

// query Which z-score is listed for CCC[C@@H]1C[C@@]1(CCC)[C@@H](NC(=O)c1ccco1)c1ccc(Cl)cc1 ?
// result -0.741

// query Which z-score is listed for C=CCC(OC(C)=O)[C@@H]1[C@@H](N(Cc2cccc3ccccc23)C(=O)Cc2ccc(F)cc2)c2cc(OCCCO)ccc2N1C(=O)Cc1ccc(OC)cc1 (stereo partly drawn) ?
// result 1.88

// query Which z-score is listed for C#CCNS(=O)(=O)N(C)C ?
// result -0.738

// query Which z-score is listed for O=C(NCc1ccccc1)[C@]1(Cc2ccccc2)N=C(c2ccc(OCCCO)cc2)O[C@@H]1c1ccccc1 ?
// result 0.709

// query Which z-score is listed for COC(=O)[C@@]1(Cc2ccccc2)[C@H]2c3cc(C(=O)N(C)C)n(Cc4ccccn4)c3C[C@H]2CN1C(=O)c1ccccc1 ?
// result -0.125

// query Which z-score is listed for CCOC(=O)C[C@H]1[C@H](OC(=O)c2ccccc2-c2ccccc2)[C@@H](NC(=O)c2ccccc2)c2cc(OCCCO)ccc2N1C(=O)Cc1ccc(OC)cc1 ?
// result 0.182

// query Which z-score is listed for C=CC[C@]1(C(=O)N2CCOCC2)N=C(c2ccc(OCCCO)cc2)O[C@H]1c1ccccc1CN=[N+]=[N-] ?
// result 0.399

// query Which z-score is listed for [N-]=[N+]=NCc1ccccc1[C@H]1OC(c2ccc(OCCCO)cc2)=N[C@@]1(Cc1ccccc1)C(N)=O ?
// result 0.514

// query Which z-score is listed for O=C1N(CCS(=O)(=O)c2ccccc2)Cc2ccccc2C[C@@]12COC(c1ccc(OCCCO)cc1)=N2 ?
// result 0.643

// query Which z-score is listed for COC(=O)c1ccc(OC)c(/C=C\CC(CCc2ccccc2)OC(C)=O)c1 (stereo not drawn) ?
// result -0.191

// query Which z-score is listed for CC(C)N1C(=O)c2ccccc2[C@](C)(C(=O)O)[C@@H]1c1ccc(CO)cc1 ?
// result 0.0073

// query Which z-score is listed for COc1ccc(CCNC(=O)[C@@H]2c3ccccc3C(=O)N(Cc3ccccc3)[C@H]2c2ccc(CO)cc2)cc1 ?
// result 1.29

// query Which z-score is listed for CCCC=C(CCC)[C@@H](NS(=O)(=O)c1cccc2cccnc12)c1ccc(C(=O)OC)cc1 ?
// result -0.0806

// query Which z-score is listed for CN1C(=O)C2C=CC(C(O)C3CCCCC3)N(N(c3ccccc3)c3ccccc3)C2C1=O (stereo not drawn) ?
// result -0.88

// query Which z-score is listed for CCC[C@@H]1C[C@@]1(CCC)[C@@H](NC(=O)c1cccs1)c1ccc(Cl)cc1 ?
// result -0.608
